STUDY_SYSTEM: Melatonin receptor type 1B (Homo sapiens, UniProt P49286)
Sequence (P49286 whole entry): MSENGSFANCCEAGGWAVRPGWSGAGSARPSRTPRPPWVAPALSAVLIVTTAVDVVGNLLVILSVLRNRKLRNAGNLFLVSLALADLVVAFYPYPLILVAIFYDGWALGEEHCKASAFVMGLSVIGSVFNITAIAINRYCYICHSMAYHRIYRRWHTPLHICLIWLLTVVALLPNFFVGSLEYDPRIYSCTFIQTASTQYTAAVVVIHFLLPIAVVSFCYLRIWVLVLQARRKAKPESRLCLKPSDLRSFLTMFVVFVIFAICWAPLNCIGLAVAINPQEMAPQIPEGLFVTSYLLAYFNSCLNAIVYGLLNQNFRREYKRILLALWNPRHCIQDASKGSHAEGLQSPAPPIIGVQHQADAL
Values of Ki strictly less than 30 nM map to Criterion met, and values of at least 30 nM map to Criterion not met.

Problem: For the compound `CC(=O)NCCN(C)c1cccc(OCCCCOc2cccc(OC(=O)NC3CCCCC3)c2)c1` , is Ki under 30 nM?
Criterion not met

Answer whether the compound `CC(=O)NCCc1c[nH]c2ccc(OCCCCCCCCNC(=O)Oc3cccc(-c4ccccc4)c3)cc12` has Ki strictly less than 30 nM
Criterion met

Criterion: Ki strictly below 30 nM. Is it met by `CC(=O)NCCc1c[nH]c2ccc(OCCCCCCNC(=O)Oc3cccc(-c4ccccc4)c3)cc12` ?
Criterion met

Strictly below 30 nM in Ki? `CC(=O)NCCN(C)c1cccc(OCCCCCCCCNC(=O)Oc2cccc(-c3ccccc3)c2)c1`
Criterion not met

Identify whether the compound `CC(=O)NCCN(C)c1cccc(OCCCCCCN)c1` records Ki below 30 nM.
Criterion not met

New cases:
Please determine if `CC(=O)NCCN(C)c1cccc(OCCCCCCNC(=O)Oc2cccc(-c3cccc(C(N)=O)c3)c2)c1` is below 30 nM in terms of Ki.
Criterion met

Given `CC(=O)NCCN(C)c1cccc(OCCCCNC(=O)Oc2cccc(-c3ccccc3)c2)c1` , is recorded Ki strictly lower than 30 nM?
Criterion not met

Say whether its Ki is strictly beneath 30 nM. Entry: `CC(=O)NCCN(C)c1cccc(OCCCCN)c1`
Criterion not met

Quick check: Ki of `CC(=O)NCCN(C)c1cccc(OCCCCCCOc2cccc(OC(=O)NC3CCCCC3)c2)c1` under 30 nM?
Criterion not met

Find out if reported Ki for `CCC(=O)NCCN(C)c1cccc(OCCCCCCNC(=O)Oc2cccc(-c3ccccc3)c2)c1` is less than 30 nM
Criterion met

Strictly below 30 nM in Ki? `CC(=O)NCCc1c(Br)[nH]c2ccc(OCCCCCCNC(=O)Oc3cccc(-c4ccccc4)c3)cc12`
Criterion met

Please check: Ki for `CC(=O)NCCN(C)c1cccc(OCCCCCCNC(=O)Oc2cccc(-c3cccc(O)c3)c2)c1` , strictly under 30 nM or not?
Criterion met

Say whether its Ki is strictly beneath 30 nM. Entry: `CC(=O)NCCN(C)c1cccc(OCCCCCCNC(=O)Oc2cccc(-c3ccccc3)c2)c1`
Criterion not met

###

Tested on: Oryctolagus cuniculus
EXPERIMENT_DESCRIPTION: Reduction in hypertonic saline solution-induced elevated intraocular pressure in New Zealand White rabbit at 1 mM dosed topically before hypertonic saline solution injection measured after 60 mins
Type: functional, organism-based
Active and inactive are the calls of the source. No cut-off for these calls is given here.
Respond with a class label; see 1.0 = active, 0.0 = inactive

Solved entries (count: 3):
Record request — test call for `CC(=O)NCCN(C)c1cccc(OCCCCCCCCNC(=O)Oc2cccc(-c3ccccc3)c2)c1`
0.0

What is the recorded call for this compound in the test? `COc1ccc2[nH]cc(CCNC(C)=O)c2c1`
1.0

Could you check what this test reported for `CC(=O)NCCN(C)c1cccc(OCCCCCCNC(=O)Oc2cccc(-c3cccc(O)c3)c2)c1` ?
0.0

Below: the item to evaluate.
# lookup: test call for `CC(=O)NCCc1c[nH]c2ccc(OCCCCCCCCNC(=O)Oc3cccc(-c4ccccc4)c3)cc12`
1.0

###

Each entry below lists one item and its recorded Ki value.
STUDY_SYSTEM: Melatonin receptor type 1A (Homo sapiens, UniProt P48039)
Sequence (P48039 whole entry): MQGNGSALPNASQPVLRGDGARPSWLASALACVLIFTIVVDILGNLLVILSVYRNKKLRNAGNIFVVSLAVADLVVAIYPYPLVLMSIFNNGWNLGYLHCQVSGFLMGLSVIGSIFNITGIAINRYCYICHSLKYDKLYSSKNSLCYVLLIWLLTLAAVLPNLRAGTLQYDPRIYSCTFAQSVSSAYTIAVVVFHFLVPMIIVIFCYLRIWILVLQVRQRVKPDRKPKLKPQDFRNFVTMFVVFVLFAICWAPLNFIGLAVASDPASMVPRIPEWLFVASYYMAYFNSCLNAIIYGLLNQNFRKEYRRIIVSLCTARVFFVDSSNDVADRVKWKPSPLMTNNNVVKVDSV

What reported Ki corresponds to `CC(=O)NCCN(C)c1cccc(OCCCCCCOc2cccc(O)c2)c1` on Melatonin receptor type 1A (Homo sapiens, UniProt P48039)?
58.9 nM

Could you share what Ki was measured for `CC(=O)NCCc1c[nH]c2ccc(OCCCCCCCCNC(=O)Oc3cccc(-c4ccccc4)c3)cc12` , tested on Melatonin receptor type 1A (Homo sapiens, UniProt P48039)?
4.9 nM

// next entry
Request body: readout Ki, system Melatonin receptor type 1A (Homo sapiens, UniProt P48039), query `CC(=O)NCCN(C)c1cccc(OCCCCCCNC(=O)Oc2cccc(-c3cccc(O)c3)c2)c1` . Return the value.
29.5 nM

###

STUDY_SYSTEM: Melatonin receptor type 1A (Homo sapiens)
EXPERIMENT_DESCRIPTION: Intrinsic agonist activity at human MT1 receptor expressed in […] NIH/3T3 cell membranes assessed as induction of G protein activation incubated for 30 mins by [35S]GTPgammaS binding assay relative to melatonin
Assay type: functional
With a cut-off of 0.6, any Intrinsic activity strictly below it is called Y; any Intrinsic activity meeting it or above is called N.

Please determine if `CC(=O)NCCN(C)c1cccc(OCCCCCCOc2cccc(OC(=O)NC3CCCCC3)c2)c1` is below 0.6 in terms of Intrinsic activity.
N

Field: below-cutoff. Rule: recorded Intrinsic activity strictly less than 0.6. Subject: `CC(=O)NCCN(C)c1cccc(OCCCCN)c1`
Y

Say whether its Intrinsic activity is strictly beneath 0.6. Entry: `CCC(=O)NCCN(C)c1cccc(OCCCCCCNC(=O)Oc2cccc(-c3ccccc3)c2)c1`
N

Please determine if `CC(=O)NCCN(C)c1cccc(OCCCCOc2cccc(O)c2)c1` is below 0.6 in terms of Intrinsic activity.
Y

Hi there! Is Intrinsic activity for `CC(=O)NCCN(C)c1cccc(OCCCCCCOc2cccc(O)c2)c1` below 0.6, do you know?
N

New cases:
Intrinsic activity under 0.6? Item: `CC(=O)NCCc1c[nH]c2ccc(OCCCCCCNC(=O)Oc3cccc(-c4ccccc4)c3)cc12`
N

Lab note: Intrinsic activity threshold 0.6. Does this compound come in strictly under it? `CC(=O)NCCN(C)c1cccc(OCCCCNC(=O)Oc2cccc(-c3ccccc3)c2)c1`
N

Given the entry `CC(=O)NCCN(C)c1cccc(OCCCCCCNC(=O)Oc2cccc(-c3cccc(C(N)=O)c3)c2)c1` , would its reported Intrinsic activity be below 0.6?
N

# TODO verify Intrinsic activity < 0.6 strictly for this compound: `CC(=O)NCCc1c[nH]c2ccc(OCCCCCCCCNC(=O)Oc3cccc(-c4ccccc4)c3)cc12`
N

Confirm or reject: Intrinsic activity of `CC(=O)NCCN(C)c1cccc(OCCCCOc2cccc(OC(=O)NC3CCCCC3)c2)c1` lies strictly below 0.6
Y

###

The following compounds are listed with their measured log10 IC50 values.
STUDY_SYSTEM: Fatty-acid amide hydrolase 1 (Rattus norvegicus, UniProt P97612)
Sequence (P97612 whole entry): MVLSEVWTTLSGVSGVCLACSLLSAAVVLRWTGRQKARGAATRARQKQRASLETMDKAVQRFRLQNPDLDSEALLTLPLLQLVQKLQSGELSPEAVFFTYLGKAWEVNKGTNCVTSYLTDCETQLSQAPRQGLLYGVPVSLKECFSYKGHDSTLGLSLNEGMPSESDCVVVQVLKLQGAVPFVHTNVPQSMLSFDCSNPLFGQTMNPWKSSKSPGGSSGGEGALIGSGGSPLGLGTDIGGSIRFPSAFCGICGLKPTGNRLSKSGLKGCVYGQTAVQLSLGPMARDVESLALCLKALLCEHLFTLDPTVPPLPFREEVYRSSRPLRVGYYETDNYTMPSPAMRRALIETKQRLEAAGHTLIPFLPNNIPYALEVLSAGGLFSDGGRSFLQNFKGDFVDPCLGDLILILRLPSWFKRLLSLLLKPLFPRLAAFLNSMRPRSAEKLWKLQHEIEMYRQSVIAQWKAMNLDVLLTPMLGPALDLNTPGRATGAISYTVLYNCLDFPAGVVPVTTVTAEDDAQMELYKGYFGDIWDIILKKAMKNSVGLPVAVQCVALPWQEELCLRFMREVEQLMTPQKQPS
EXPERIMENT_DESCRIPTION: Inhibition of FAAH1 in Wistar rat brain homogenates using [3H]anandamide as substrate incubated for 30 mins by liquid scintillation counting method
The figures below represent log10 of IC50, where IC50 is stated in nM.

Below, 5 compounds whose answers are already recorded.
Fill in the blank: the reported log10 IC50 of `CC(=O)NCCN(C)c1cccc(OCCCCNC(=O)Oc2cccc(-c3ccccc3)c2)c1` is ____.
0.16

# log10 IC50 lookup, item `CC(=O)NCCc1c[nH]c2ccc(OCCCCCCNC(=O)Oc3cccc(-c4ccccc4)c3)cc12`
0.38

Please report the recorded log10 IC50 for `CC(=O)NCCc1c(Br)[nH]c2ccc(OCCCCCCNC(=O)Oc3cccc(-c4ccccc4)c3)cc12` .
-0.07

Suppose we examine the compound `CC(=O)NCCN(C)c1cccc(OCCCCCCCCNC(=O)Oc2cccc(-c3ccccc3)c2)c1` ; what log10 IC50 value has been reported?
-0.20

# lookup: log10 IC50 of `CC(=O)NCCN(C)c1cccc(OCCCCCCNC(=O)Oc2cccc(-c3ccccc3)c2)c1`
0.13

Continuing:
Field request: log10 IC50 | item: `CC(=O)NCCc1c[nH]c2ccc(OCCCCCCCCNC(=O)Oc3cccc(-c4ccccc4)c3)cc12`
0.60

What value of log10 IC50 has been recorded for this entry: `CC(=O)NCCN(C)c1cccc(OCCCCOc2cccc(OC(=O)NC3CCCCC3)c2)c1`
2.26

For the compound `CC(=O)NCCN(C)c1cccc(OCCCCCCNC(=O)Oc2cccc(-c3cccc(O)c3)c2)c1` , what log10 IC50 is on record?
-0.44

Requested field: log10 IC50. Item: `CC(=O)NCCN(C)c1cccc(OCCCCCCOc2cccc(OC(=O)NC3CCCCC3)c2)c1`
2.29

Endpoint output: log10 IC50 of `CC(=O)NCCN(C)c1cccc(OCCCCCCNC(=O)Oc2cccc(-c3cccc(C(N)=O)c3)c2)c1` . Value?
-0.37

Data origin: ChEMBL document CHEMBL4196155
